Values were extracted from ChEMBL document CHEMBL4834416.

- Measurement protocol: Oral bioavailability in C57BL/6 mouse plasma at 0.3 mg/kg, IG by LC-MS/MS analysis
- Type: ADME, organism-based
Readout kind: bioavailability (%)
Form entry: value (%) — number only.

State the recorded bioavailability for this entry: `O=C(/C=C/c1ccc(-c2cccc(C(F)(F)F)c2)cc1)Nc1ccccc1C(=O)O` 90.4

---

- System tested: Transient receptor potential cation channel subfamily M member 8 (Homo sapiens)
- Sequence (Q7Z2W7 whole entry): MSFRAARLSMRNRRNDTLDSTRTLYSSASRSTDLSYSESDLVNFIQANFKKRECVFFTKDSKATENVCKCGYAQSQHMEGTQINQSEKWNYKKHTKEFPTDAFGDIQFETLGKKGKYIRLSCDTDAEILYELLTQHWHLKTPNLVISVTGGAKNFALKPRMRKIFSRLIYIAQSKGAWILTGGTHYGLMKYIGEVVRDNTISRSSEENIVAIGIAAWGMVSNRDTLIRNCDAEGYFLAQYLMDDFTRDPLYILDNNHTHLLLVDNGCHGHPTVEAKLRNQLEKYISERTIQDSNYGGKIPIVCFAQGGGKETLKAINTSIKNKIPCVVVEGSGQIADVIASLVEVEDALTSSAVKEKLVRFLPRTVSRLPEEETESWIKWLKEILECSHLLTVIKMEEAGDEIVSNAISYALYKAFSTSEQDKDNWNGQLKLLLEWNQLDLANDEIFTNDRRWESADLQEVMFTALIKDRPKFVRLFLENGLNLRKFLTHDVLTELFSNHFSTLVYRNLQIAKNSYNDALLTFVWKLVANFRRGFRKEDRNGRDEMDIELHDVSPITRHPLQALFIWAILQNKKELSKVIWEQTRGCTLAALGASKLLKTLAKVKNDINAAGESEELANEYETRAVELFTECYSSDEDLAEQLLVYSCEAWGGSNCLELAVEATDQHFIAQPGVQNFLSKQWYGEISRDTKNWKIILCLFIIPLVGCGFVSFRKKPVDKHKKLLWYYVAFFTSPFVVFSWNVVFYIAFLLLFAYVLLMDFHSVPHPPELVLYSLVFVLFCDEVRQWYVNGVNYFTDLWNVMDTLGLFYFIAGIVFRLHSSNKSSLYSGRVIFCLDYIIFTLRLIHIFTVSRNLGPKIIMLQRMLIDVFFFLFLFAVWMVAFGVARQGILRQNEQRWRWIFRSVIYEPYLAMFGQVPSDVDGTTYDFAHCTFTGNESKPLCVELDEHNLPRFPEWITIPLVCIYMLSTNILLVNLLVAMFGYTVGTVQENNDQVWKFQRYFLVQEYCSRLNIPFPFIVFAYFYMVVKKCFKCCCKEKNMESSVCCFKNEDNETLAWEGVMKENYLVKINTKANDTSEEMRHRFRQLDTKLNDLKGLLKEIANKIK
- Measurement protocol: Inhibition of human TRPM8 expressed in HEK293T cells assessed as blocked of menthol-activated current by whole cell patch clamp electrophysiology relative to control
pIC50: −log10 of the molar value.
Readout kind: pIC50

State the recorded pIC50 for this entry: `COc1cccc(NC(=O)/C=C/c2ccc(Cl)cc2)c1` < 5.00

---

- Measurement protocol: Cmax in C57BL/6 mouse plasma at 0.3 mg/kg, iv by LC-MS/MS analysis
- Assay type: ADME, organism-based
- Set-up: route intravenous, dose 0.3 mg/kg
Readout kind: Cmax (ng/mL)
Form entry: value (ng/mL) — number only.

State the recorded Cmax for this entry: `O=C(/C=C/c1ccc(-c2cccc(C(F)(F)F)c2)cc1)Nc1ccccc1C(=O)O` 5070

---

- Measurement protocol: Clearance in C57BL/6 mouse plasma at 1 mg/kg, iv by LC-MS/MS analysis
- Format: ADME, organism-based
Readout kind: clearance
Units required after the number.

State the recorded clearance for this entry: `O=C(/C=C/c1ccc(-c2cccc(C(F)(F)F)c2)cc1)Nc1ccccc1C(=O)O` 0.882 mL/min/kg

---

- Measurement protocol: AUC (0 to t) in C57BL/6 mouse plasma at 1 mg/kg, iv by LC-MS/MS analysis
- Format: ADME, organism-based
- Set-up: dose 1 mg/kg
Readout kind: AUC(0-t) (ng·h/mL)
Form entry: value (ng·h/mL) — number only.

State the recorded AUC(0-t) for this entry: `O=C(/C=C/c1ccc(-c2cccc(C(F)(F)F)c2)cc1)Nc1ccccc1C(=O)O` 18500

---

- System tested: Transient receptor potential cation channel subfamily M member 2 (Homo sapiens, UniProt O94759)
- Sequence (O94759 whole entry): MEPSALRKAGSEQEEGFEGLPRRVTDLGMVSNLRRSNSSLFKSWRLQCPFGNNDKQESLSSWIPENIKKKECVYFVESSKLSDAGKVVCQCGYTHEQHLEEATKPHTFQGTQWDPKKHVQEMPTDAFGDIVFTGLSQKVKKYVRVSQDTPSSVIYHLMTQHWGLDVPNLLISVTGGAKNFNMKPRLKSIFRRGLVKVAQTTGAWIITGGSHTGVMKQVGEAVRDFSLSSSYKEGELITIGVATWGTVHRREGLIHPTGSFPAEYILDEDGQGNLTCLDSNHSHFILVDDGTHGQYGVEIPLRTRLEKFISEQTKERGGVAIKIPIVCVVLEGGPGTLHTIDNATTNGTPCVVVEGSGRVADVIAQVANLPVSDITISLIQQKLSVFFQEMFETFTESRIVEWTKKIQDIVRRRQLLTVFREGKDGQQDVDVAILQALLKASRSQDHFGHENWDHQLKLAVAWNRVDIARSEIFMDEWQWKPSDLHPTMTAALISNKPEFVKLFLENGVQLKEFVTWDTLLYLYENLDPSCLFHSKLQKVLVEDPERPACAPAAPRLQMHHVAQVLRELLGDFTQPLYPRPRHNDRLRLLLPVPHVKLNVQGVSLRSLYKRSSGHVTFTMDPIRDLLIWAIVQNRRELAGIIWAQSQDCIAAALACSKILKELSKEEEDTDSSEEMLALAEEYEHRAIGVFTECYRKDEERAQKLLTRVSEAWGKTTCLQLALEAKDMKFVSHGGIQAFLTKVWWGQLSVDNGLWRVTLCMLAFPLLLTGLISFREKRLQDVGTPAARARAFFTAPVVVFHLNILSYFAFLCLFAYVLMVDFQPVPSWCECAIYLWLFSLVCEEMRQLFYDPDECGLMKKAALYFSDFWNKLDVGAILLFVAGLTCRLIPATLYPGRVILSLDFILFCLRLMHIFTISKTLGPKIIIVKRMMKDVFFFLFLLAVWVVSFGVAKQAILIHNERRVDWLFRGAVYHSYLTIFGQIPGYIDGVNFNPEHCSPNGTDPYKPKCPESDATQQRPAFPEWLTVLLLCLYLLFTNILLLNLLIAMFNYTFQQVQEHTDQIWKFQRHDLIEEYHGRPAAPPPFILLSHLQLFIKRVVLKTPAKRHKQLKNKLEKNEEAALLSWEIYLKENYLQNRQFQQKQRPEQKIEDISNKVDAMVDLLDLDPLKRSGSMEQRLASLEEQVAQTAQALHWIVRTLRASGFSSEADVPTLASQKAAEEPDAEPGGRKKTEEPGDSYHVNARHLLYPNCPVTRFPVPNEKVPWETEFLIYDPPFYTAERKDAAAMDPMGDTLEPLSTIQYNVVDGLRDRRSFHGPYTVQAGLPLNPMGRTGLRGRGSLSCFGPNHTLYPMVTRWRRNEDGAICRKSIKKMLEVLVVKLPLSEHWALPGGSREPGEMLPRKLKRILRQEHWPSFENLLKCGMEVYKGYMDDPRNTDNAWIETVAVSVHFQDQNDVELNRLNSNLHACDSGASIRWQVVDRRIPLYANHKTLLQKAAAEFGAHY
- Measurement protocol: Inhibition of human TRPM2 expressed in HEK293T cells assessed as suppression of H2O2-induced calcium flux at 1 uM measured after 30 mins by Fluo-3/AM assay
- Assay type: cell-based
Please provide measured inhibition for the entries that follow.

State the recorded inhibition for this entry: `O=C(/C=C/c1ccc(N2CCOCC2)cc1)Nc1ccccc1C(=O)O` < 45%

State the recorded inhibition for this entry: `O=C(/C=C/c1ccc(-c2cccc([N+](=O)[O-])c2)cc1)Nc1ccc(Br)cc1C(=O)O` > 45%

State the recorded inhibition for this entry: `Cc1ccc(C(=O)O)c(NC(=O)/C=C/c2ccc(-c3cccc([N+](=O)[O-])c3)cc2)c1` > 45%

State the recorded inhibition for this entry: `CCOc1ccc(/C=C/C(=O)Nc2ccccc2C(=O)O)cc1` < 45%

State the recorded inhibition for this entry: `O=C(/C=C/c1ccc(-c2cccc(C(F)(F)F)c2)cc1)Nc1ccccc1C(=O)O` > 45%

---

Please provide measured log10 of IC50 for the entries that follow.
- System tested: UniProt:O94759
- Measurement protocol: Inhibition of human TRPM2 expressed in HEK293T cells assessed as blocked of ADPR-activated current by whole cell patch clamp electrophysiology
Use the decimal logarithm of IC50 (µM).

State the recorded log10 of IC50 for this entry: `O=C(/C=C/c1ccc(-c2ccccc2)cc1)Nc1ccccc1C(=O)O` 0.41

State the recorded log10 of IC50 for this entry: `O=C(/C=C/c1ccc(-c2cccc([N+](=O)[O-])c2)cc1)Nc1ccccc1C(=O)O` -0.40

State the recorded log10 of IC50 for this entry: `CCOC(=O)Cn1nc(-c2ccc(C(F)(F)F)cc2)c2c1CCCCC2` -1.89

State the recorded log10 of IC50 for this entry: `CCCCCc1ccc(/C=C/C(=O)Nc2ccc(C)cc2C(=O)O)cc1` -0.01

State the recorded log10 of IC50 for this entry: `Clc1ccccc1C(c1ccccc1)(c1ccccc1)n1ccnc1` 0.48

---

- Measurement protocol: MRT in C57BL/6 mouse plasma at 1 mg/kg, iv by LC-MS/MS analysis
- Type: ADME, organism-based
Readout kind: MRT (h)
Form entry: value (h) — number only.

State the recorded MRT for this entry: `O=C(/C=C/c1ccc(-c2cccc(C(F)(F)F)c2)cc1)Nc1ccccc1C(=O)O` 1.7

---

- System tested: Transient receptor potential cation channel subfamily M member 2 (Homo sapiens)
- Measurement protocol: Inhibition of human TRPM2 expressed in HEK293T cells assessed as blocked of ADPR-activated current by whole cell patch clamp electrophysiology
Please provide measured IC50 for the entries that follow.
Form entry: value (nM) — number only.

State the recorded IC50 for this entry: `O=C(/C=C/c1ccc(-c2ccccc2)cc1)Nc1ccc(Br)cc1C(=O)O` 410

State the recorded IC50 for this entry: Clc1ccc(COC(Cn2ccnc2)c2ccc(Cl)cc2Cl)cc1 (stereo not given) [ECONAZOLE] 3000

State the recorded IC50 for this entry: `O=C(/C=C/c1ccc(-c2cccc(F)c2)cc1)Nc1ccccc1C(=O)O` 830

State the recorded IC50 for this entry: `O=C(/C=C/c1ccc(-c2cccc(C(F)(F)F)c2)cc1)Nc1ccccc1C(=O)O` 788

State the recorded IC50 for this entry: `CCCCCc1ccc(/C=C/C(=O)Nc2cc(C)ccc2C(=O)O)cc1` 467

---

- Measurement protocol: AUC (0 to infinitive) in C57BL/6 mouse plasma at 0.3 mg/kg, iv by LC-MS/MS analysis
- Type: ADME, organism-based
- Parameters: time infinity, route intravenous, dose 0.3 mg/kg
Readout kind: AUC(0-inf) (ng·h/mL)
Form entry: value (ng·h/mL) — number only.

State the recorded AUC(0-inf) for this entry: `O=C(/C=C/c1ccc(-c2cccc(C(F)(F)F)c2)cc1)Nc1ccccc1C(=O)O` 5450

---

- Measurement protocol: Cmax in C57BL/6 mouse plasma at 1 mg/kg, iv by LC-MS/MS analysis
- Format: ADME, organism-based
- Design: route intravenous, dose 1 mg/kg
Readout kind: Cmax (ng/mL)
Form entry: value (ng/mL) — number only.

State the recorded Cmax for this entry: `O=C(/C=C/c1ccc(-c2cccc(C(F)(F)F)c2)cc1)Nc1ccccc1C(=O)O` 13000

---

- Measurement protocol: Tmax in C57BL/6 mouse plasma at 10 mg/kg, IG by LC-MS/MS analysis
- Format: ADME, organism-based
- Assay setup: po
Readout kind: Tmax (min)
Form entry: value (min) — number only.

State the recorded Tmax for this entry: `O=C(/C=C/c1ccc(-c2cccc(C(F)(F)F)c2)cc1)Nc1ccccc1C(=O)O` 30

---

- Measurement protocol: Half life in C57BL/6 mouse plasma at 0.3 mg/kg, iv by LC-MS/MS analysis
- Type: ADME, organism-based
Readout kind: half-life (min)
Form entry: value (min) — number only.

State the recorded half-life for this entry: `O=C(/C=C/c1ccc(-c2cccc(C(F)(F)F)c2)cc1)Nc1ccccc1C(=O)O` 55.8

---

- Measurement protocol: Cmax in C57BL/6 mouse plasma at 3 mg/kg, iv by LC-MS/MS analysis
- Assay type: ADME, organism-based
- Parameters: route intravenous, dose 3 mg/kg
Readout kind: Cmax
Units required after the number.

State the recorded Cmax for this entry: `O=C(/C=C/c1ccc(-c2cccc(C(F)(F)F)c2)cc1)Nc1ccccc1C(=O)O` 24300 ng/mL

---

- Measurement protocol: AUC (0 to infinitive) in C57BL/6 mouse plasma at 10 mg/kg, IG by LC-MS/MS analysis
- Assay type: ADME, organism-based
- Set-up: route […], time infinity, dose 10 mg/kg
- Assay setup: po
Readout kind: AUC(0-inf)
Units required after the number.

State the recorded AUC(0-inf) for this entry: `O=C(/C=C/c1ccc(-c2cccc(C(F)(F)F)c2)cc1)Nc1ccccc1C(=O)O` 160 µg·h/mL

---

Please provide measured Activity for the entries that follow.
- Tested on: SH-SY5Y
- Measurement protocol: Cytotoxicity against human SH-SY5Y cells assessed as toxicity at 30 uM incubated for 24 hrs by CCK-8 assay
- Assay type: cell-based

State the recorded Activity for this entry: `O=C(/C=C/c1ccc(-c2cccc(F)c2)cc1)Nc1ccccc1C(=O)O` < 23.7%

State the recorded Activity for this entry: `O=C(/C=C/c1ccc(-c2cccc(C(F)(F)F)c2)cc1)Nc1ccccc1C(=O)O` < 10%

State the recorded Activity for this entry: `CCCCCc1ccc(/C=C/C(=O)Nc2ccc(C)cc2C(=O)O)cc1` < 10%

State the recorded Activity for this entry: `CCCCCc1ccc(/C=C/C(=O)Nc2cc(C)ccc2C(=O)O)cc1` < 10%

State the recorded Activity for this entry: `O=C(/C=C/c1ccc(-c2ccccc2)cc1)Nc1ccc(Br)cc1C(=O)O` < 10%

State the recorded Activity for this entry: `O=C(/C=C/c1ccc(-c2cccc([N+](=O)[O-])c2)cc1)Nc1ccccc1C(=O)O` < 10%

State the recorded Activity for this entry: `CCCCCc1ccc(/C=C/C(=O)Nc2ccccc2C(=O)O)cc1` < 10%
